For each record, write down the corresponding CL/F.
testName: in vivo
conditionsUsed: rat, po, 3 mg/kg
Description: Clearance in transgenic rat harboring human angiotensinogen and human renin gene at 3 mg/kg, po
The response must be a number in mL/min/kg with no trailing unit.

IN: Consider the compound "COCCCc1ccc(Cl)c(CN(C(=O)[C@H]2CNCC[C@@H]2c2ccc(OCCOc3c(Cl)cc(C)cc3Cl)nc2)C2CC2)c1" and give its measured CL/F.
OUT: 29

IN: Quick one: CL/F for "COCCc1ccc(Cl)c(CN(C(=O)[C@H]2CNCC[C@@H]2c2ccc(OCCOc3c(Cl)cc(C)cc3Cl)nc2)C2CC2)c1" ?
OUT: 21

IN: Which CL/F is listed for "COCCc1ccc(Cl)c(CN(C(=O)[C@H]2CNCC[C@@H]2c2ccc(N3CC[C@@H](Oc4c(Cl)cc(C)cc4Cl)C3)nc2)C2CC2)c1" ?
OUT: 35
